Measured pIC50, listed per entry.
# Tested on: COLO 205 colorectal tumor cells
# experiment description: Tumor cell viability inhibition assay (CellTiter-Glo 2.0, 72 hours)
# Type: cell-based
# applied conditions: Homo sapiens, COLO 205, 72 h, COLO 205 cell viability
pIC50: −log10 of the molar value.

Use these answered entries as a reference point.
molecule	result
Cc1cc(-c2cc(Cl)ccc2OCCn2c(C)nc3c(c2=O)C[C@H](N2CCCC[C@H]2c2cccc(C(F)(F)F)c2)CC3)c2scc(C(=O)O)c2n1 (single isomer, unassigned)	> 5.30
CO[C@@H]1CCN([C@H]2CCc3nc(C)n(CCOc4ccc(Cl)cc4-c4cc(C)nc5c(C(=O)O)csc45)c(=O)c3C2)CC1(C)C (single isomer, unassigned)	> 5.30

The record that follows has no pIC50 shown yet.
// lookup pIC50 for Cc1cc(-c2cc(Cl)ccc2OCCn2c(C)nc3c(c2=O)CC(N(C)C2CC(F)(F)C2)CC3)c2scc(C(=O)NS(C)(=O)=O)c2n1 (single isomer, unassigned) [Compound 93]
> 5.30
